Data provenance is PubChem BioAssay.

The entries below come with measured fold change values attached.
# assay_notes: viability loss with induced miR-34 in A549 – imaging, A549 dox-inducible miR-34, nuclei and caspase counts, primary screen (AID 1347080); note: test concentration not given here
# run_conditions: A549 miR-34 inducible, Hoechst nuclei count, 48 h; measured here: relative caspase fold change +Dox/-Dox

mol_smiles: COc1cc2c(Oc3ccc4[nH]c(C)cc4c3F)ncnc2cc1OCCCN1CCCC1
fold change: 1.09
//
mol_smiles: CCCC/C=C/C=C/C=C\CCCCCCCC(=O)OC
fold change: 0.864
//
mol_smiles: CCCCNC(=O)[C@@H]1Cc2ccccc2N1C(=O)[C@@H](N)CC
fold change: 1.76
//
mol_smiles: Cc1ncc(-c2ccnc(Nc3ccc(S(C)(=O)=O)cc3)n2)n1C(C)C
fold change: 1.12
//
mol_smiles: FC(F)(F)c1cc(CO[C@H]2CCCN[C@H]2c2ccccc2)cc(C(F)(F)F)c1
fold change: 0.987
